# System: MiaPaca-2 cells
# ASSAY_METHOD_TEXT: MiaPaca-2 Cell Proliferation Assay
# Format: cell-based
# MEASUREMENT_SETUP: Homo sapiens, MIA PaCa-2, MiaPaca-2 cells; Table 2; read-out: Inhibition of cell proliferation in MiaPaca-2 (IC50 class)
# Experimental: Miapaca-2 cells (catalog #CRL-1420) are obtained from the American Type Culture Collect (ATTC, Manassas, VA). […] Plates are read on a Synergy2 or equivalent reader (Biotek, Winooski VT) using an excitation of 540 nm and an emission of 600 nm. Data is analyzed using Prism software (Graphpad, San Diego, CA) to calculate IC50 values.

# SMILES_STRING, IC50
data = [
    ("Cc1ccc(NC(=O)c2cc(C3CC3)cnn2)cc1-c1nc(NCCO)cc(-c2ccnc(NC(=O)C3CC3)c2)n1", "1 to 10 µM"),
    ("COC(=O)Nc1cc(-c2cc(-c3cc(NC(=O)c4ccc(C(F)(F)F)nc4)cnc3C)ccn2)ccn1", "1 to 10 µM"),
    ("Cc1ccc(NC(=O)c2cc(C(F)(F)F)cnn2)cc1-c1cc(N[C@H](C)CO)nc(-c2c[nH]nc2N)c1", "0.1 to 0.5 µM"),
    ("Cc1ccc(NC(=O)c2cc(C3CC3)cnn2)cc1-c1ccnc(-c2cnn(C)n2)c1", "0.5 to 1 µM"),
]

----------
# Test system: MiaPaca-2 cells
# ASSAY_METHOD_TEXT: MiaPaca-2 Cell Proliferation Assay
# Format: cell-based
# MEASUREMENT_SETUP: Homo sapiens, MIA PaCa-2, MiaPaca-2 cells; Table 2; read-out: Inhibition of cell proliferation in MiaPaca-2 (IC50 class)
pIC50: −log10 of the molar value.
Reported pIC50 by item:
READOUT_LABEL: pIC50

# SMILES_STRING, OBSERVED
records = [
    ("Cc1ccc(NC(=N)c2cc(C(F)(F)F)cnn2)cc1-c1ccnc(-c2ccnc(NC(=O)C3CC3)c2)c1", "5.00 to 6.00"),
    ("CC(=O)Nc1cc(-c2cc(-c3cc(NC(=O)c4ccc(C(F)(F)F)nn4)ccc3C)ccn2)ccn1", "> 7.00"),
    ("Cc1ccc(NC(=O)c2cc(C(F)(F)F)cnn2)cc1-c1ccnc(-c2ccnc(NC(=O)C3(C)CC3)c2)c1", "6.30 to 7.00"),
    ("Cc1ccc(NC(=O)c2cc(C3CC3)cnn2)cc1-c1cc(OCCO)nc(-c2ccnc(NC(=O)C3CC3)c2)c1", "6.00 to 6.30"),
    ("Cc1ccc(NC(=O)c2cc(N)cnn2)cc1-c1ccnc(-c2ccnc(NC(=O)C3CC3)c2)c1", "5.00 to 6.00"),
    ("Cc1ccc(NC(=O)c2cncc(C(F)(F)F)c2)cc1-c1cncc(-c2cc(NC(=O)C3CC3)ncn2)c1", "6.30 to 7.00"),
    ("Cc1ccc(NC(=O)c2cc(C(F)(F)F)cnn2)cc1-c1cc(N[C@H](C)CO)nc(-c2c(C)n[nH]c2C)c1", "6.30 to 7.00"),
    ("Cc1ccc(NC(=O)c2cc(C(F)(F)F)cnn2)cc1-c1cccc(-c2cc(NC(=O)C3CC3)ncn2)c1", "6.00 to 6.30"),
    ("Cc1cc(-c2cc(NC(=O)c3cc(C(F)(F)F)cnn3)ccc2C)cc(-c2ccnc(NC(=O)C3CC3)c2)n1", "6.30 to 7.00"),
    ("Cc1ccc(NC(=O)c2cc(C(F)(F)F)cnn2)cc1-c1cncc(-c2cc(NC(=O)C(F)(F)F)ncn2)c1", "6.00 to 6.30"),
    ("Cc1ccc(NC(=O)c2cc(C(F)(F)F)cnn2)cc1-c1ccnc(-c2ccnc(NC(=O)C3(C)CCC3)c2)c1", "6.30 to 7.00"),
    ("Cc1ccc(NC(=O)c2cc(C(C)(F)F)cnn2)cc1-c1ccnc(-c2ccnc(NC(=O)C3CC3)c2)c1", "> 7.00"),
    ("Cc1ccc(NC(=O)c2cc(C(F)(F)F)cnn2)cc1-c1ccnc(-c2ccnc(N)c2)c1", "> 7.00"),
    ("Cc1ccc(NC(=O)c2cc(C(F)(F)F)cnn2)cc1-c1ccnc(-c2ccnc(NCC(F)(F)F)c2)c1", "6.30 to 7.00"),
    ("CC(=O)Nc1cc(-c2cc(-c3cc(NC(=O)c4ccc(C(F)(F)F)nc4)ccc3C)ccn2)ccn1", "> 7.00"),
]

----------
# Tested on: MiaPaca-2 cells
# ASSAY_METHOD_TEXT: MiaPaca-2 Cell Proliferation Assay
# Type: cell-based
# MEASUREMENT_SETUP: Homo sapiens, MIA PaCa-2, MiaPaca-2 cells; Table 2; read-out: Inhibition of cell proliferation in MiaPaca-2 (IC50 class)
READOUT_LABEL: IC50

# SMILES_STRING, MEASURED_TARGET, OBSERVED
records = [
    ("Cc1ccc(NC(=O)c2cncc(C(C)(F)F)c2)cc1-c1ccnc(-c2ccnc(NC(=O)C3CC3)c2)c1", "MiaPaca-2 cells", "500 to 1000 nM"),
    ("Cc1ccc(NC(=O)c2cc(C(F)(F)F)cnn2)cc1-c1ccnc(-c2cnn(C)c2)c1", "MiaPaca-2 cells", "100 to 500 nM"),
    ("Cc1ccc(NC(=O)c2cc(C(F)(F)F)cnn2)cc1-c1ccnc(-c2ccnc(NCCO)c2)c1", "MiaPaca-2 cells", "< 100 nM"),
    ("Cc1ccc(NC(=O)c2cc(C3CC3)cnn2)cc1-c1ccnc(-c2ccnc(NC(=O)C3CC3)c2)c1", "MiaPaca-2 cells", "< 100 nM"),
    ("Cc1ccc(NC(=O)c2ccc(C(C)(F)F)nc2)cc1-c1ccnc(-c2ccnc(NC(=O)C3CC3)c2)c1", "MiaPaca-2 cells", "100 to 500 nM"),
    ("Cc1cc(-c2cc(NC(=O)c3cncc(C(C)(F)F)c3)ccc2C)cc(-c2ccnc(NC(=O)C3CC3)c2)n1", "MiaPaca-2 cells", "500 to 1000 nM"),
    ("COc1cnnc(C(=O)Nc2ccc(C)c(-c3ccnc(-c4ccnc(NC(=O)C5CC5)c4)c3)c2)c1", "MiaPaca-2 cells", "500 to 1000 nM"),
]

----------
# MEASURED_TARGET: C-Raf kinase (SEQ ID NO: 2) (Homo sapiens, UniProt P04049, Y340D/Y341D)
# Construct: C-Raf residues 306-end; Y340D, Y341D with; GST (N); purchased Sigma
# Sequence (P04049 307-648 Y340D/Y341D): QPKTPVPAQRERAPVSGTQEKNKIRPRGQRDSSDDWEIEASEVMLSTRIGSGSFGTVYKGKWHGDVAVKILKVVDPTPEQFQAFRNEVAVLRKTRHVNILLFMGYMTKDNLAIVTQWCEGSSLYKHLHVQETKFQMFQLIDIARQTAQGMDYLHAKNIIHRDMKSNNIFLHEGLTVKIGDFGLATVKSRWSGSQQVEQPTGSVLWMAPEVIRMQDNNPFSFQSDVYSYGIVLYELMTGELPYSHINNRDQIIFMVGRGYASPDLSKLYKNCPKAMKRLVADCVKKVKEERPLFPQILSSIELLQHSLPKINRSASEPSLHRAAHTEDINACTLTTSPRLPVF
# ASSAY_METHOD_TEXT: Biochemical Assay for C-Raf (coupled pyruvate kinase/lactate dehydrogenase assay)
# MEASUREMENT_SETUP: 1 mM ATP; read-out: CRAF (inhibition of biochemical activity, IC50)
pIC50: −log10 of the molar value.

# COMPOUND, pIC50
records = [
    ("Cc1cnc(NC(=O)c2cc(C(F)(F)F)cnn2)cc1-c1ccnc(-c2ccnc(NC(=O)C3CC3)c2)c1 [Example 36]", "> 7.00"),
    ("Cc1ccc(NC(=O)c2cc(C(F)(F)F)cnn2)cc1-c1cc(OCCO)nc(-c2ccnc(NC(=O)C3CC3)c2)c1 [Example 131]", "> 7.00"),
    ("Cc1ccc(NC(=O)c2cc(C#N)cnn2)cc1-c1cc(N[C@H](C)CO)nc(-c2cn[nH]c2)c1 [Example 152]", "6.30 to 7.00"),
    ("COCC(=O)Nc1cc(-c2cncc(-c3cc(NC(=O)c4ccc(C(F)F)nc4)ccc3C)n2)ccn1 [Example 89]", "6.30 to 7.00"),
    ("Cc1ccc(NC(=O)c2cncc(C(C)(F)F)c2)cc1-c1ccnc(-c2ccnc(NC(=O)C3CC3)c2)c1 [Example 82]", "> 7.00"),
    ("Cc1ccc(NC(=O)c2ccc(C(F)(F)F)nc2)cc1-c1ccnc(-c2ccnc(NC(=O)C3CC3)c2)c1 [Example 79]", "> 7.00"),
    ("Cc1ccc(NC(=O)c2cc(C(F)(F)F)cnn2)cc1-c1ccnc(-c2ccnc(NC(C)C)c2)c1 [Example 54]", "5.00 to 6.00"),
]

----------
# MEASURED_TARGET: B-Raf kinase (SEQ ID NO: 1) (Homo sapiens, UniProt P15056)
# Construct: GST (N); purchased Sigma
# Sequence (P15056 416-766): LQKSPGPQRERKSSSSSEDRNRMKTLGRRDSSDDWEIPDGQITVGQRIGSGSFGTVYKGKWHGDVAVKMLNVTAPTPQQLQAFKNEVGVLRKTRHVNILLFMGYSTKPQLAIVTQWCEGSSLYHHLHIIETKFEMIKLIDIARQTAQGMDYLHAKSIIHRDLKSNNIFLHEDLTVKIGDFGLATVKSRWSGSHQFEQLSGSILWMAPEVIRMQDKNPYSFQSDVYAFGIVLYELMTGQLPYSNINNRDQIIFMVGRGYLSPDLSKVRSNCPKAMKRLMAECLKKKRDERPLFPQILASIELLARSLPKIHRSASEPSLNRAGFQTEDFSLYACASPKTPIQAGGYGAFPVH
# ASSAY_METHOD_TEXT: Biochemical Assay for B-Raf (coupled pyruvate kinase/lactate dehydrogenase assay)
# MEASUREMENT_SETUP: 1 mM ATP; read-out: BRAF (inhibition of biochemical activity, IC50)
READOUT_LABEL: IC50

# SMILES_STRING, OBSERVED
measured = [
    ("Cc1ccc(NC(=O)c2cc(C(C)(C)F)cnn2)cc1-c1cncc(-c2cc(NC(=O)C3CC3)ncn2)c1", "< 100 nM"),
    ("Cc1ccc(NC(=O)c2cc(OC(F)F)cnn2)cc1-c1ccnc(-c2ccnc(NC(=O)C3CC3)c2)c1", "< 100 nM"),
    ("Cc1ccc(NC(=O)c2cc(C(C)(F)F)cnn2)cc1-c1ccnc(-c2ccsc2)c1", "1000 to 10000 nM"),
    ("CONc1cc(-c2cc(-c3cc(NC(=O)c4cc(C(F)(F)F)cnn4)ccc3C)ccn2)ccn1", "100 to 500 nM"),
    ("Cc1ccc(NC(=O)c2cncc(C(F)(F)F)c2)cc1-c1cncc(-c2cc(NC(=O)C3CC3)ncn2)c1", "< 100 nM"),
    ("Cc1ccc(NC(=O)c2cc(C(C)(F)F)cnn2)cc1-c1ccnc(-c2cscn2)c1", "1000 to 10000 nM"),
    ("Cc1ccc(NC(=O)c2cc(C(F)(F)F)cnn2)cc1-c1cc(N[C@H](C)CO)nc(-c2c(C)n[nH]c2C)c1", "100 to 500 nM"),
    ("Cc1ccc(NC(=O)c2cccnn2)cc1-c1ccnc(-c2ccnc(NC(=O)C3CC3)c2)c1", "1000 to 10000 nM"),
    ("CC(=O)Nc1cc(-c2nccc(-c3cc(NC(=O)c4ccc(C(F)F)nc4)ccc3C)n2)ccn1", "100 to 500 nM"),
    ("COC(=O)Nc1cc(-c2cncc(-c3cc(NC(=O)c4ccc(C(F)(F)F)nc4)ccc3C)c2)ncn1", "< 100 nM"),
    ("CC(=N)Nc1cc(-c2cc(-c3cc(NC(=O)c4cc(C(F)(F)F)cnn4)ccc3C)ccn2)ccn1", "100 to 500 nM"),
    ("COC(=O)Nc1cc(-c2cc(-c3cc(NC(=O)c4ccc(C(F)(F)F)nc4)cnc3C)ccn2)ccn1", "1000 to 10000 nM"),
    ("CC(=O)Nc1cc(-c2cc(-c3cc(NC(=O)c4ccc(C(F)(F)F)nn4)ccc3C)ccn2)ccn1", "500 to 1000 nM"),
    ("Cc1ccc(NC(=O)c2ccc(C(F)(F)F)nc2)cc1-c1ccnc(-c2ccnc(NC(=O)C3CC3)c2)c1", "< 100 nM"),
    ("Cc1ccc(NC(=O)c2cnc(C(F)(F)F)nc2)cc1-c1ccnc(-c2cn[nH]c2)c1", "1000 to 10000 nM"),
]
